Tested on: SK-OV-3 ovarian
method.description: NCI tumour cell line growth inhibition, 48 h
measurement.label: TGI (µM)
Please respond with the number in µM and leave the unit unwritten.

# count of solved cases: 3
CC(=O)n1c(-c2ccc(Cl)c(Cl)c2)cn(-c2ccc(Cl)cc2)c1=O | 44.1
O=C1COCCN1c1ccc(NCc2cn(C(=O)c3ccc(Cl)cc3)c3ccccc23)cc1 | 92.1
CC1(C)CC2(C)ON=C(c3ccccc3)N2c2ccccc2N1 (stereo not given) | 53

// switching to the query molecule
Entry under review: Cc1ccc(-n2cc(-c3ccc(Cl)cc3)c3c2N=CN2NC(c4cccs4)=NC32)cc1 (stereo not given) . Reported TGI?
37.3
